This collection of values is drawn from the domain aggregation screens of Martell et al. (2025).

Method notes: soluble fraction after stress (log2 fold change); higher = more stays soluble; pooled small domains, quantitative proteomics
Condition description: stress: 50 degC
Hi there, I'd appreciate the recorded soluble fraction (log2) for every entry that follows.

INSERT INTO results (primary_sequence, property_label, endpoint_result) VALUES
  ('HMSNLENSLNESLSLLKSNKYNEALEILKKIEIEDSRVFFLLGTIYSVMKNINLGEEFLIKASK', 'soluble fraction (log2)', -1.48),
  ('HMGSDLVAWAQTRIGRHPEEAADVIAALIDRHGEARVRAASRSLLARKFAHASDLRTAIDAAIG', 'soluble fraction (log2)', -0.0161);

For the 8 sequences below, give their soluble fraction (log2) values.
1. HMSMLGTEQRVLVLGPARKGEGFLMARTDNNRIVNFEGPLSLVDTMVRVKVTDVYPHSLGGQLL
2. HMRLSDSEFESIENAIKEKLENSALTADVLVKELSFDEDKIWKVIRWLEDAEKISEDEAGTLLWKPR
3. HMKQLRVLGIVKAGSILKNSDGSIEFVIEDSGKSLLVKYKGVIPDIFKDGVEAVVEGDLRGSVFNADKLF
4. HMWTIDPLDWKTENADQIVEKVMSEAKENAIILLHDRYEASVEAALRIVDLLKEQGYTFVTADKLV
5. HMETKPTELMLEVHELRIGMFVHLDLGWMDHPFPLNRFKISTNSQIEQIKGLRLKQVKVMTALSDPTALS
6. HMKQEFEMGLPNGVGEQMLAHAIEKFDVKLEHSEFGPKLIGTYEELEKAKVFLYEAIEARLNQLE
7. HMPVTAQFDFSKVLAGRTLKDGEFSFVLKDKNGTVLQTKTNDASGKVAFDALIYKNNEVGEHKYTVEEVI
8. HMNTGLSEREHEIAQLVLQGRTYAEIGAELFISPRTAEHHIGQIRRRLAATSRSDLLAKLRVAMNTTEGAG

[-1.55, -0.22, -0.75, -0.257, -2.21, -0.0154, 0.208, -1.27]

---

Method notes: soluble fraction after stress (log2 fold change); higher = more stays soluble; pooled small domains, quantitative proteomics
Condition description: stress: 50 degC
Property label: soluble fraction (log2)
Answers are plain numbers.

Worked examples follow.
INSERT INTO assay_data (primary_sequence, endpoint_result) VALUES
  ('HMLETLVYPNPTTDKILLSSPVDYHLFSLKGELVLEGRGSSIEVSQLSKGVYFLNTKTQTFKIIK', -0.383),
  ('HMVEDFSEVLLQYIREQGGAIALNDKTDAGVIYDTFGVSKKTFKKAVGDLYKKRLIVLGDEGIRLA', -0.619),
  ('HMTEEYAVLWRVARQTLKPEAFDVLWMKYREQLSIAEIAGIMNRSETSVKVMLHRARKNLGTALESS', -1.71),
  ('HMATPSTGQVSVVRLNLRVSPSISSPVVTRLTQGDTVKILAASDDGRWYKVATADGRTGWLYTIYITAE', -0.37);

For the 6 sequences below, give their soluble fraction (log2) values.
1. HMGQNYTIVKGDSLWKIAQKQYGDGSQWKKIYDANKDAIESAAKKYGKKSSDSGKWIYPGVSLII
2. HMSPAVSLITGKLGAETYYKQGLKKAKEKDYEGALDDLIKAYEFFPDKKIKTQVDKLASFLGKPPIL
3. HMARRTPPPTVSELNALLRVAAPHIQRVILLGIYTGARIGPSELFSLKWDDVDLTRGVIGIRL
4. HMAIWAVFYKNEPFNLKSFNSLTSYPGPKYKKTSFSNPGHALNLAKKLNLTFGTEDFQVVKLTQGTIV
5. HMPGMLVVYVTGAVRQPGRMVTLAAGSRVSDAIDAAGGLADDADAQALNLSARLNDGDLVHVPSALD
6. HMHAPRIEVVQIDPEKIGALIGPGGKNIRRITEVTGANLDIDEDNSGKIRVYASDSEAMNRALQEIDLVT

1: 0.0704; 2: 0.0669; 3: -0.0306; 4: -2.61; 5: 0.0161; 6: 0.193
